Recorded values, source patent US10174067B2.

- Experimental Setup: Day 1; G10-G16 groups; single IP 400 mg/kg; Mean±SEM
Endpoint Name: Weight change rate, Day 1 (%)

[[record]]
compound = "CCCCOC(=O)Nc1nc(=O)n([C@@H]2O[C@H](COC(=O)Cn3cnc([N+](=O)[O-])c3)C(O)C2(F)F)cc1I (stereo partly drawn) [Compound G12]"
endpoint_name = "Weight change rate, Day 1"
reported_result = "−2.59"

[[record]]
compound = "CCCCOC(=O)Nc1nc(=O)n(C2OC(COC(=O)COc3nc(Cl)c(Cl)cc3Cl)C(O)C2(F)F)cc1-c1cn(Cc2ccccc2)nn1 (stereo not drawn) [Compound G15]"
endpoint_name = "Weight change rate, Day 1"
reported_result = "−1.20"

[[record]]
compound = "O=C(COc1nc(Cl)c(Cl)cc1Cl)OC[C@H]1O[C@@H](n2cc(Br)c(NC(=O)OCc3ccccc3)nc2=O)C(F)(F)C1O (stereo partly drawn) [Compound G10]"
endpoint_name = "Weight change rate, Day 1"
reported_result = "−1.76"


====

- Experimental Setup: Day 1; G10-G16 groups; single IP 400 mg/kg; Mean±SEM
Listing of entries alongside the reported Weight of mice, Day 1.
Endpoint Name: Weight of mice, Day 1 (g)

[[record]]
molecule = "CCCCOC(=O)Nc1nc(=O)n(C2OC(COC(=O)COc3nc(Cl)c(Cl)cc3Cl)C(O)C2(F)F)cc1I (stereo not drawn) [Compound G11]"
reported_result = 19.38

[[record]]
molecule = "O=C(COc1nc(Cl)c(Cl)cc1Cl)OC[C@H]1O[C@@H](n2cc(Br)c(NC(=O)OCc3ccccc3)nc2=O)C(F)(F)C1O (stereo partly drawn) [Compound G10]"
reported_result = 19.55

[[record]]
molecule = "CCCCOC(=O)Nc1nc(=O)n(C2OC(COC(=O)COc3nc(Cl)c(Cl)cc3Cl)C(O)C2(F)F)cc1Br (stereo not drawn) [Compound G16]"
reported_result = 20.40

[[record]]
molecule = "CCCCOC(=O)Nc1nc(=O)n([C@@H]2O[C@H](COC(=O)Cn3cnc([N+](=O)[O-])c3)C(O)C2(F)F)cc1I (stereo partly drawn) [Compound G12]"
reported_result = 19.53

[[record]]
molecule = "CCCCOC(=O)Nc1nc(=O)n(C2OC(COC(=O)COc3nc(Cl)c(Cl)cc3Cl)C(O)C2(F)F)cc1-c1cn(Cc2ccccc2)nn1 (stereo not drawn) [Compound G15]"
reported_result = 19.92

[[record]]
molecule = "O=C(COc1nc(Cl)c(Cl)cc1Cl)OCC1OC(n2cc(-c3cn(Cc4ccccc4)nn3)c(NC(=O)OCc3ccc([N+](=O)[O-])cc3)nc2=O)C(F)(F)C1O (stereo not drawn) [Compound G13]"
reported_result = 19.05


====

Below, each of the molecules is paired with its reported Weight of mice, Day 28 value.
- Experimental Setup: Day 28; G10-G16 groups; single IP 400 mg/kg; Mean±SEM
Endpoint Name: Weight of mice, Day 28 (g)

[[record]]
molecule = "CCCCOC(=O)Nc1nc(=O)n([C@@H]2O[C@H](COC(=O)Cn3cnc([N+](=O)[O-])c3)C(O)C2(F)F)cc1I (stereo partly drawn)"
endpoint_name = "Weight of mice, Day 28"
reported_result = 20.68

[[record]]
molecule = "CCCCOC(=O)Nc1nc(=O)n(C2OC(COC(=O)COc3nc(Cl)c(Cl)cc3Cl)C(O)C2(F)F)cc1I (stereo not drawn)"
endpoint_name = "Weight of mice, Day 28"
reported_result = 20.22

[[record]]
molecule = "O=C(COc1nc(Cl)c(Cl)cc1Cl)OC[C@H]1O[C@@H](n2cc(Br)c(NC(=O)OCc3ccccc3)nc2=O)C(F)(F)C1O (stereo partly drawn)"
endpoint_name = "Weight of mice, Day 28"
reported_result = 19.54


====

- Tested on: ICR mice
- Assay Details: in vivo
- Experimental Setup: female ICR mice; single-dose ip
Endpoint Name: dose that could be tolerated (maximum tolerated dose, MTD) (mg/kg)

[[record]]
molecule = "O=C(Nc1nc(=O)n([C@@H]2O[C@H](CO)[C@@H](O)C2(F)F)cc1Br)OCc1ccccc1 [Compound G7]"
reported_result = 200

[[record]]
molecule = "O=C(Nc1ccn([C@@H]2O[C@H](CO)[C@@H](O)C2(F)F)c(=O)n1)OCc1ccc([N+](=O)[O-])cc1 [Compound G5]"
reported_result = 300

[[record]]
molecule = "O=C(Nc1ccn([C@@H]2O[C@H](CO)[C@@H](O)C2(F)F)c(=O)n1)OCc1ccccc1 [Compound G4]"
reported_result = 350

[[record]]
molecule = "CCCCOC(=O)Nc1nc(=O)n(C2OC(COC(=O)COc3nc(Cl)c(Cl)cc3Cl)C(O)C2(F)F)cc1-c1cn(Cc2ccccc2)nn1 (stereo not drawn) [Compound G15]"
reported_result = 400

[[record]]
molecule = "CCCCOC(=O)Nc1nc(=O)n(C2OC(COC(=O)COc3nc(Cl)c(Cl)cc3Cl)C(O)C2(F)F)cc1Br (stereo not drawn) [Compound G16]"
reported_result = 400

[[record]]
molecule = "CC(C)(C)OC(=O)Nc1ccn([C@@H]2O[C@H](CO)[C@@H](O)C2(F)F)c(=O)n1 [Compound G3]"
reported_result = 350

[[record]]
molecule = "O=C(COc1nc(Cl)c(Cl)cc1Cl)OCC1OC(n2cc(-c3cn(Cc4ccccc4)nn3)c(NC(=O)OCc3ccc([N+](=O)[O-])cc3)nc2=O)C(F)(F)C1O (stereo not drawn) [Compound G13]"
reported_result = 400

[[record]]
molecule = "CCCCOC(=O)Nc1nc(=O)n([C@@H]2O[C@H](CO)[C@@H](O)C2(F)F)cc1Br [Compound G6]"
reported_result = 200

[[record]]
molecule = "CCCCOC(=O)Nc1nc(=O)n(C2OC(COC(=O)COc3nc(Cl)c(Cl)cc3Cl)C(O)C2(F)F)cc1I (stereo not drawn) [Compound G11]"
reported_result = 400


====

- Experimental Setup: Day 14; G10-G16 groups; single IP 400 mg/kg; Mean±SEM
- Procedure: To determine the growth inhibition effect and toxicity of the cytidine derivative samples of the present invention on the transplanted tumor of nude mice bearing colon cancer HCT-116. […] All clinical symptoms of each animal should be recorded at the beginning of the test and during the test. […] The data were expressed as Mean±SEM unless specially provided; Non-pairing T test was performed for the data between the two groups. […]
Known Weight change rate, Day 14 of a selection of compounds
Endpoint Name: Weight change rate, Day 14 (%)

[[record]]
compound = "CCCCOC(=O)Nc1nc(=O)n(C2OC(COC(=O)COc3nc(Cl)c(Cl)cc3Cl)C(O)C2(F)F)cc1-c1cn(Cc2ccccc2)nn1 (stereo not drawn) [Compound G15]"
endpoint_name = "Weight change rate, Day 14"
unit_label = "%"
reported_result = 7.83

[[record]]
compound = "CCCCOC(=O)Nc1nc(=O)n(C2OC(COC(=O)COc3nc(Cl)c(Cl)cc3Cl)C(O)C2(F)F)cc1Br (stereo not drawn) [Compound G16]"
endpoint_name = "Weight change rate, Day 14"
unit_label = "%"
reported_result = 1.54

[[record]]
compound = "CCCCOC(=O)Nc1nc(=O)n(C2OC(COC(=O)COc3nc(Cl)c(Cl)cc3Cl)C(O)C2(F)F)cc1I (stereo not drawn) [Compound G11]"
endpoint_name = "Weight change rate, Day 14"
unit_label = "%"
reported_result = "−1.81"

[[record]]
compound = "O=C(COc1nc(Cl)c(Cl)cc1Cl)OCC1OC(n2cc(-c3cn(Cc4ccccc4)nn3)c(NC(=O)OCc3ccc([N+](=O)[O-])cc3)nc2=O)C(F)(F)C1O (stereo not drawn) [Compound G13]"
endpoint_name = "Weight change rate, Day 14"
unit_label = "%"
reported_result = 0.35

[[record]]
compound = "O=C(COc1nc(Cl)c(Cl)cc1Cl)OC[C@H]1O[C@@H](n2cc(Br)c(NC(=O)OCc3ccccc3)nc2=O)C(F)(F)C1O (stereo partly drawn) [Compound G10]"
endpoint_name = "Weight change rate, Day 14"
unit_label = "%"
reported_result = "−1.53"

[[record]]
compound = "CCCCOC(=O)Nc1nc(=O)n([C@@H]2O[C@H](COC(=O)Cn3cnc([N+](=O)[O-])c3)C(O)C2(F)F)cc1I (stereo partly drawn) [Compound G12]"
endpoint_name = "Weight change rate, Day 14"
unit_label = "%"
reported_result = 1.76


====

- System: HCT-116 colon cancer xenografts
- Assay Details: Tumor growth inhibition of HCT-116 colon cancer xenografts in tumor-bearing nude mice (tumor volume, TGI %, RTV, T/C %)
- Type: in vivo, Balb/c Nude mice
- Experimental Setup: Day 7; G10-G16 groups; single IP 400 mg/kg
Endpoint Name: Day 7 (TGI %)

[[record]]
compound = "CCCCOC(=O)Nc1nc(=O)n(C2OC(COC(=O)COc3nc(Cl)c(Cl)cc3Cl)C(O)C2(F)F)cc1-c1cn(Cc2ccccc2)nn1 (stereo not drawn)"
reported_result = 86.92

[[record]]
compound = "O=C(COc1nc(Cl)c(Cl)cc1Cl)OCC1OC(n2cc(-c3cn(Cc4ccccc4)nn3)c(NC(=O)OCc3ccc([N+](=O)[O-])cc3)nc2=O)C(F)(F)C1O (stereo not drawn)"
reported_result = 68.32

[[record]]
compound = "CCCCOC(=O)Nc1nc(=O)n(C2OC(COC(=O)COc3nc(Cl)c(Cl)cc3Cl)C(O)C2(F)F)cc1I (stereo not drawn)"
reported_result = 53.56

[[record]]
compound = "O=C(COc1nc(Cl)c(Cl)cc1Cl)OC[C@H]1O[C@@H](n2cc(Br)c(NC(=O)OCc3ccccc3)nc2=O)C(F)(F)C1O (stereo partly drawn)"
reported_result = 46.09

[[record]]
compound = "CCCCOC(=O)Nc1nc(=O)n(C2OC(COC(=O)COc3nc(Cl)c(Cl)cc3Cl)C(O)C2(F)F)cc1Br (stereo not drawn)"
reported_result = 45.07

[[record]]
compound = "CCCCOC(=O)Nc1nc(=O)n([C@@H]2O[C@H](COC(=O)Cn3cnc([N+](=O)[O-])c3)C(O)C2(F)F)cc1I (stereo partly drawn)"
reported_result = 51.81

